Data provenance: ChEMBL document CHEMBL3860023

Below, each entry is listed alongside its reported log10 EC50.
# Tested on: Human immunodeficiency virus 1
# TEST DETAILS: Antiviral activity against HIV1 3B expressing wild type reverse transcriptase infected in human MT4 cells assessed as protection against virus-induced cytopathic effect after 5 days by MTT assay
# Type: functional, cell-based
# TEST CONTEXT: Human immunodeficiency virus 1, 3B, MT4, 120 h
QUANTITY MEASURED: log10 EC50 (log10 of the value in nM)

[[record]]
molecule = "Cc1cc(C)c(Oc2cc(Cl)nc(NC3CCN(Cc4ccc(S(N)(=O)=O)cc4)CC3)c2)c(C)c1"
quantity_measured = "log10 EC50"
measured_result = 1.52

[[record]]
molecule = "Cc1cc(C)c(Oc2cc(Cl)nc(Nc3ccc(C#N)cc3)c2)c(C)c1"
quantity_measured = "log10 EC50"
measured_result = 2.61

[[record]]
molecule = "Cc1cc(C)c(Oc2cc(Nc3ccc(C#N)cc3)nc(OCCCN3CCOCC3)c2)c(C)c1"
quantity_measured = "log10 EC50"
measured_result = 3.04

[[record]]
molecule = "O=C1Nc2ccc(Cl)cc2[C@@](C#CC2CC2)(C(F)(F)F)O1 [EFAVIRENZ]"
quantity_measured = "log10 EC50"
measured_result = 0.83

[[record]]
molecule = "COc1cc(Oc2c(C)cc(C#N)cc2C)cc(NC2CCN(Cc3ccc(S(N)(=O)=O)cc3)CC2)n1"
quantity_measured = "log10 EC50"
measured_result = 0.89

[[record]]
molecule = "COc1cc(Oc2c(C)cc(C#N)cc2C)cc(NC2CCN(Cc3ccccc3)CC2)n1"
quantity_measured = "log10 EC50"
measured_result = 2.00

[[record]]
molecule = "Cc1cc(C#N)cc(C)c1Oc1cc(Cl)nc(NC2CCN(Cc3ccncc3)CC2)c1"
quantity_measured = "log10 EC50"
measured_result = 0.96

[[record]]
molecule = "Cc1cc(C)c(Oc2cc(Cl)nc(NC3CCN(Cc4ccncc4)CC3)c2)c(C)c1"
quantity_measured = "log10 EC50"
measured_result = 1.62


----------
Below, each entry is listed alongside its reported log10(CC50 at 120 h).
# TEST DETAILS: Cytotoxicity against mock-infected human MT4 cells assessed as reduction in cell viability after 5 days by MTT assay
# Assay type: toxicity, cell-based
QUANTITY MEASURED: log10(CC50 at 120 h) (log10 of the value in µM)

[[record]]
compound_structure = "Cc1cc(C)c(Oc2cc(Cl)nc(Nc3ccc(C#N)cc3)c2)c(C)c1"
measured_result = 1.03

[[record]]
compound_structure = "Cc1cc(C#N)cc(C)c1Oc1cc(Cl)nc(Nc2ccc(CN3CCOCC3)cc2)c1"
measured_result = 0.85

[[record]]
compound_structure = "Cc1cc(C#N)cc(C)c1Oc1cc(Cl)nc(Nc2ccc(C#N)cc2)c1"
measured_result = 1.76

[[record]]
compound_structure = "Cc1cc(C)c(Oc2cc(Cl)nc(NC3CCN(Cc4ccccc4)CC3)c2)c(C)c1"
measured_result = 0.99

[[record]]
compound_structure = "COc1cc(Oc2c(C)cc(C#N)cc2C)cc(NC2CCN(Cc3ccc(S(C)(=O)=O)cc3)CC2)n1"
measured_result = 0.23

[[record]]
compound_structure = "Cc1cc(C)c(Oc2cc(Cl)nc(Nc3ccc(CN4CCOCC4)cc3)c2)c(C)c1"
measured_result = 1.41

